target: Thyrotropin receptor (Homo sapiens, UniProt P16473); assay: Agonist activity at TSHR (unknown origin) expressed in CHO cells; format: functional, cell-based
Sequence (P16473 whole entry): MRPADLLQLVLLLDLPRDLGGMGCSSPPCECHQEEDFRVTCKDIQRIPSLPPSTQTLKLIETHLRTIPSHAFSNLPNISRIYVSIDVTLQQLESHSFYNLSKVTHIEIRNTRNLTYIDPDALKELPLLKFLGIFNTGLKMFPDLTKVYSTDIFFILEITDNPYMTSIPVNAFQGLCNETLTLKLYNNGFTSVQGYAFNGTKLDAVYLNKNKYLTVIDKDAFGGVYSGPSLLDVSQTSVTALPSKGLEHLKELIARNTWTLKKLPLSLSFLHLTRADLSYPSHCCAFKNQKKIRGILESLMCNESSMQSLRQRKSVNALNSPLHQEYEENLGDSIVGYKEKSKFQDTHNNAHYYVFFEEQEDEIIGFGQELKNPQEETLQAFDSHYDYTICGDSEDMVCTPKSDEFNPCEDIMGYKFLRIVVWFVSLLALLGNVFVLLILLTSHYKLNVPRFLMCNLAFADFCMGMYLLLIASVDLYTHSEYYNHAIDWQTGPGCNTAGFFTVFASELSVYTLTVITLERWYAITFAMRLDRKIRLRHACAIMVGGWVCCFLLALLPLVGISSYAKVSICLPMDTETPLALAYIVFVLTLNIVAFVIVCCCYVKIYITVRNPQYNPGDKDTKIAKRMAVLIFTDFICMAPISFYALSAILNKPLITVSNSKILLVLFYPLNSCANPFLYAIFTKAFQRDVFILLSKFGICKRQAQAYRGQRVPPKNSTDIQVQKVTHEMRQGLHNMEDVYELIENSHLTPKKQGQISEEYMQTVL
Here the recorded pEC50 is given for each entry.
pEC50 here is simply -log10 of the concentration when that concentration is written in mol/L.

{"smiles code": "COC/C=C/c1ccc(-c2nc(SC)nc3sc(C(=O)NC(C)(C)C)c(N)c23)cc1", "pEC50": 8.38}

**Query** Look at this compound and give its reported pEC50. `CCCc1ccc(-c2cc(C(=O)NCc3ccncc3)c3ccccc3n2)cc1`
**Result** 8.08

* * *

target: Thyrotropin receptor (Homo sapiens); assay: Agonist activity at TSHR (unknown origin); type: functional
Here the recorded pEC50 is given for each entry.
pEC50 here is simply -log10 of the concentration when that concentration is written in mol/L.

{"molecule": "CCCc1ccc(-c2cc(C(=O)NCc3ccncc3)c3ccccc3n2)cc1", "measurement kind": "pEC50", "reading": 8.08}

**Query** Look at this molecule and give its reported pEC50. CC(c1ccccc1)c1nc(N2CCNCC2)nc2ccccc12 (configuration not stated)
**Result** 7.94

These data points were gathered from ChEMBL document CHEMBL5614439.
